Assay: log P by HPLC on a reversed-phase column (C18), EEC Directive 79/831 Annex V.A8
Format: physicochemical
Settings: reversed-phase HPLC column (Kromasil 100 C18), H3PO4
Procedure: The stated log P values were determined in accordance with EEC Directive 79/831 Annex V.A8 by HPLC (High Performance Liquid Chromatography) on a reversed-phase column (C18). HP1100 LC System (UV/DAD); Kromasil 100 C18, 3.5 μm, 75×2.0 mm; mobile phase A: acetonitrile (0.1% formic acid); mobile phase B: water (0.09% formic acid); linear gradient from 10% acetonitrile to 95% acetonitrile over 8.5 min, then 95% acetonitrile for a further 3.5 min; oven temperature 43° C.; flow rate: 0.5 ml/min […]
valueKind: chromatographic logP
Give bare numbers.

COc1ccc(Cn2c(OC)c(OC)c(O)c(C(=O)CCc3ccc(Oc4ccc(Cl)cc4)cc3)c2=O)cc1 [Compound I-89]	5.75

// switching to the query compound
// lookup chromatographic logP for COc1[nH]c(=O)c(C(=O)C(C)CC2CCC(C(C)C)CC2)c(O)c1OC (centres unmarked) [Compound I-164] 5.41

----------
For each entry below, report its pest or weed control at 100 g/ha value.
system: Sphaerotheca fuliginea; test: Sphaerotheca test (cucumber)/protective; type: in vivo; conditions: Podosphaera fuliginea, 168 h, read-out: Efficacy in %

C/C=C/CC(C)C(=O)c1c(O)c(OC)c(OC)[nH]c1=O (stereo not shown)	77%
CCCC(C)C(=O)c1c(O)c(OC)c(OC)[nH]c1=O (stereo not shown)	98%
CCC(CC)CC(C)C(=O)c1c(O)c(OC)c(OC)[nH]c1=O (stereo not shown)	100%

// switching to the query compound
// lookup pest or weed control at 100 g/ha for CCCCC(C)C(=O)c1c(O)c(OC)c(OC)[nH]c1=O (stereo not shown) 98%

----------
For each entry below, report its pest or weed control at 100 g/ha value.
system: Sphaerotheca fuliginea; assay: Sphaerotheca test (cucumber)/protective; format: in vivo; conditions: Podosphaera fuliginea, 168 h; young cucumber plants, protective spray, application rate 100 g/ha, evaluation 7 days after inoculation; 0% = control, 100% = no infection; read-out: Efficacy in %
Numbers only, in %.

COc1[nH]c(=O)c(C(=O)C(C)CC(F)(F)F)c(O)c1OC (stereo not shown)	100

Working through the 3 compounds below one at a time, give pest or weed control at 100 g/ha for each.
1. COc1[nH]c(=O)c(C(=O)C(C)CCC2CCCC2)c(O)c1OC (stereo not shown)
2. COc1[nH]c(=O)c(C(=O)C(C)CC(C)C)c(O)c1OC (stereo not shown)
3. COc1[nH]c(=O)c(C(=O)C(C)c2ccc(Cl)cc2)c(O)c1OC (stereo not shown)

[98, 96, 85]
